- System: Pseudomonas aeruginosa
- assay.notes: Compound was tested for antibacterial activity against gram negative Pseudomonas aeruginosa PAO1
- Assay type: functional
- assay.context: Pseudomonas aeruginosa; read-out: MIC
property: MIC (µg/mL)

Examples from the recorded data:
                                   compound  property  reading
0  COc1c(N2CC[C@@](CO)(C(F)(F)F)C2)c(F)cc2c(=O)c(C(=O)O)cn(C3CC3)c12       MIC     12.5
1  COc1c(N2C[C@@H](CN)[C@H](C)C2)c(F)cc2c(=O)c(C(=O)O)cn(C3CC3)c12.Cl       MIC     0.78
2  COc1c(N2C[C@@H](CO)[C@H](C(F)(F)F)C2)c(F)cc2c(=O)c(C(=O)O)cn(C3CC3)c12       MIC     3.13

[a] COc1c(N2C[C@@H](N)[C@H](C(F)(F)F)C2)c(F)cc2c(=O)c(C(=O)O)cn(C3CC3)c12.O=C(O)C(F)(F)F
[b] COc1c(N2CC[C@@](N)(C(F)(F)F)C2)c(F)cc2c(=O)c(C(=O)O)cn(C3CC3)c12.Cl
[c] COc1c(N2C[C@H](CN)[C@H](C(F)(F)F)C2)c(F)cc2c(=O)c(C(=O)O)cn(C3CC3)c12.Cl
[d] COc1c(N2C[C@@H](CN)[C@H](C(F)(F)F)C2)c(F)cc2c(=O)c(C(=O)O)cn(C3CC3)c12.Cl (racemic)
Query string: Write the entries in order, lowest recorded MIC first. List labels; respect the requested ordering.
Result string: c, d, a, b
